Data origin: PubChem BioAssay AID2472

- ASSAY METHOD TEXT: qHTS Assay for Inhibitors of Fructose-1,6-bisphosphate Aldolase from Giardia Lamblia: Coupling assay counterscreen
- TEST CONDITIONS: coupling enzyme system counterscreen, AmpLite Red fluorescence; at 58.2 µM (top of the series)
- Excerpt: MLPCN Grant: MH085699-01 Assay Provider: Osnat Herzberg, University of Maryland NCGC Assay Overview: The objective of this project is to obtain compounds that inhibit Giardia lamblia growth. G. lamblia is a human pathogen which afflicts impoverished nations; it is the most common cause of outbreaks of diarrhea in the United States. […] This was done by coupling it to a diaphorase/resazurin/resorufin reaction that can be monitored by fluorescence (excitation, 544 nm; emission, 590 nm). […]
Among all 290,000 compounds or so, about 2,000 (0.69%) were called active. Cut-off read from the data, not from the text of the source: active = activity change below about -30%; inactive = the rest, inconclusive results apart. The sample as a whole holds a higher share of actives than the screen did.
Your response should consist of one outcome taken from active, inactive

Query: Call for entry CC(C)CC[n+]1ccn(C2=C([O-])c3ccccc3C(=O)/C2=N\S(=O)(=O)c2ccccc2)c1 :
Response: active

Query: Call for entry COc1ccc2c(c1)N(C)/C(=C1/SC(=S)N(NC(C)=O)C1=O)S2 :
Response: inactive

Query: Call for entry Cc1[nH][nH]c(=O)c1C(c1ccc2c(c1)OCO2)c1c(C)[nH][nH]c1=O :
Response: inactive

Query: Call for entry COc1cccc(CN(C)C(=O)CC23CC4CC(CC(C4)C2)C3)c1OC :
Response: inactive

Query: Call for entry CCOc1ccc(C(c2c(C)[nH][nH]c2=O)c2c(C)[nH][nH]c2=O)cc1OCC :
Response: inactive
